- target_desc: K-RAS4B^G12D (Homo sapiens, UniProt P01116, G12D)
- method_notes: cell-based
- Parameters: a fusion protein of LgBiT and full-length RAS; a fusion protein of SmBiT(q) and full-length RAS in cells; expressed in transfected cells; host or cells: HEK239T (so in the source)
- run_parameters: live cells; displacement of BI2852 from the K-Ras4B SI/II binding-site; read-out: K-RAS4B^G12D NanoBRET TE KD
Listing: Kd of selected compounds
readout_type: Kd (µM)

INSERT INTO measurements (compound, target_desc, unit_of_measure, limit_sign, recorded_result) VALUES
  ('C[C@H]1[C@H](C)CC[C@]2(C(=O)O)CC[C@]3(C)C(=CC[C@@H]4[C@@]5(C)CC[C@H](OC(=O)c6c(F)ccc(F)c6C(=O)O)C(C)(C)[C@@H]5CC[C@]43C)[C@H]12 [Compound 36]', 'K-RAS4B^G12D (Homo sapiens, UniProt P01116, G12D)', 'µM', '>', 50),
  ('C=C(C)[C@@H]1CC[C@]2(C(=O)O)CC[C@]3(C)[C@H](CC[C@@H]4[C@@]5(C)CC[C@H](OC(=O)c6sccc6C(=O)O)C(C)(C)[C@@H]5CC[C@]43C)[C@@H]12 [Compound 18]', 'K-RAS4B^G12D (Homo sapiens, UniProt P01116, G12D)', 'µM', '=', 20.1),
  ('C=C(C)[C@@H]1CC[C@]2(COC(=O)CCC(=O)O)CC[C@]3(C)[C@H](CC[C@@H]4[C@@]5(C)CC[C@H](OC(=O)CCC(=O)O)C(C)(C)[C@@H]5CC[C@]43C)[C@@H]12 [Compound 32]', 'K-RAS4B^G12D (Homo sapiens, UniProt P01116, G12D)', 'µM', '=', 29.1);

----------
- target_desc: K-RAS4B G12V (Homo sapiens, UniProt P01116, G12V)
- method_notes: Nucleotide exchange assay (SOS1-mediated GDP/GTP exchange, GDP-Glo), K-RAS4B G12V
- run_parameters: eight data points, at least three determinations, (*) single determination
pIC50: −log10 of the molar value.
# key: entry, value: pIC50
readout_type: pIC50

INSERT INTO assay_data (compound, recorded_result) VALUES
  ('CC1(C)CC[C@]2(C(=O)O)CC[C@]3(C)C(=CC[C@@H]4[C@@]5(C)CC[C@H](OC(=O)c6ccsc6C(=O)O)C(C)(C)[C@@H]5CC[C@]43C)[C@@H]2C1 [Compound 46]', 5.09),
  ('COc1cc(C(=O)O)c(C(=O)OC2CCC3(C)C(CCC4(C)C3CC=C3C5CC(C)(C)CCC5(C(=O)O)CCC34C)C2(C)C)cc1OC (stereo not shown) [Compound 47]', 5.54),
  ('CC1(C)CC[C@]2(C(=O)Nc3nnn[nH]3)CC[C@]3(C)C(=CC[C@@H]4[C@@]5(C)CC[C@H](O)C(C)(C)[C@@H]5CC[C@]43C)[C@@H]2C1 [Compound 39]', 5.04),
  ('C=C(C)[C@@H]1CC[C@]2(C(=O)O)CC[C@]3(C)[C@H](CC[C@@H]4[C@@]5(C)CC[C@H](OC(=O)c6cc(OC)c(OC)cc6C(=O)O)C(C)(C)[C@@H]5CC[C@]43C)[C@@H]12 [Compound 26]', 4.58),
  ('CC1(C)CCC23CCC4(C)C5(C)CCC6C(C)(C)C(OC(=O)c7cc(F)c(F)cc7C(=O)O)CCC6(C)C5CC(O)C4(OC2=O)C3C1 (stereo not shown) [Compound 51]', 5.07),
  ('C=C(C)[C@@H]1CC[C@]2(C(=O)O)CC[C@]3(C)[C@H](CC[C@@H]4[C@@]5(C)CC[C@H](OC(=O)c6cc(F)c(F)cc6C(=O)O)C(C)(C)[C@@H]5CC[C@]43C)[C@@H]12 [Compound 25]', 5.01),
  ('C=C(C)[C@@H]1CC[C@]2(C(=O)O)CC[C@]3(C)[C@H](CC[C@@H]4[C@@]5(C)CC[C@H](OC(=O)c6nccnc6C(=O)O)C(C)(C)[C@@H]5CC[C@]43C)[C@@H]12 [Compound 23]', 5.02),
  ('C[C@H]1[C@H](C)CC[C@]2(C(=O)O)CC[C@]3(C)C(=CC[C@@H]4[C@@]5(C)CC[C@H](OC(=O)c6c(F)ccc(F)c6C(=O)O)C(C)(C)[C@@H]5CC[C@]43C)[C@H]12 [Compound 36]', 5.60),
  ('C=C(C)[C@@H]1CC[C@]2(COC(=O)CCC(=O)O)CC[C@]3(C)[C@H](CC[C@@H]4[C@@]5(C)CC[C@H](OC(=O)c6cc(F)c(F)cc6C(=O)O)C(C)(C)[C@@H]5CC[C@]43C)[C@@H]12 [Compound 34]', 5.55),
  ('C=C(C)[C@@H]1CC[C@]2(COC(=O)CCC(=O)O)CC[C@]3(C)[C@H](CC[C@@H]4[C@@]5(C)CC[C@H](OC(=O)c6c(F)ccc(F)c6C(=O)O)C(C)(C)[C@@H]5CC[C@]43C)[C@@H]12 [Compound 33]', 5.67);

----------
- target_desc: K-RAS4B^G12D (Homo sapiens, UniProt P01116, G12D)
- method_notes: biochemical
- run_parameters: K-RAS4B form mostly not given; inactive = IC50 > 100 μM (Fig. 3 legend)
readout_type: inhibition of GDP/GTP exchange (in words)

INSERT INTO results (compound, recorded_result) VALUES
  ('C=C(C)[C@@H]1CC[C@]2(C(=O)On3nnc4cccnc43)CC[C@]3(C)[C@H](CC[C@@H]4[C@@]5(C)CC[C@H](O)C(C)(C)[C@@H]5CC[C@]43C)[C@@H]12 [Compound 13]', 'inactive'),
  ('CC1(C)CC[C@]2(C(=O)O)CC[C@]3(C)C(=CC[C@@H]4[C@@]5(C)CC[C@H](OC(=O)c6cc(F)c(F)cc6C(=O)NO)C(C)(C)[C@@H]5CC[C@]43C)[C@@H]2C1 [Compound 42]', 'completely inactive'),
  ('C=C(C)[C@@H]1CC[C@]2(C(=O)OC)CC[C@]3(C)[C@H](CC[C@@H]4[C@@]5(C)CC[C@H](O)C(C)(C)[C@@H]5CC[C@]43C)[C@@H]12 [Compound 10]', 'inactive'),
  ('CC1(C)CC[C@]2(C(=O)NCCN)CC[C@]3(C)C(=CC[C@@H]4[C@@]5(C)CC[C@H](O)C(C)(C)[C@@H]5CC[C@]43C)[C@@H]2C1 [Compound 40]', 'inactive'),
  ('C=C(C)[C@@H]1CC[C@]2(C(=O)O)CC[C@]3(C)[C@H](CC[C@@H]4[C@@]5(C)CC[C@H](OC(C)=O)C(C)(C)[C@@H]5CC[C@]43C)[C@@H]12 [Compound 8]', 'inactive'),
  ('C=C(C)[C@@H]1CC[C@]2(C(=O)O)CC[C@]3(C)[C@H](CC[C@@H]4[C@@]5(C)CCC(=O)C(C)(C)[C@@H]5CC[C@]43C)[C@@H]12 [Compound 20, betulonic acid]', 'inactive'),
  ('COC(=O)c1ccccc1C(=O)O[C@H]1CC[C@]2(C)[C@H]3CC=C4[C@@H]5CC(C)(C)CC[C@]5(C(=O)O)CC[C@@]4(C)[C@]3(C)CC[C@H]2C1(C)C [Compound 48]', 'completely inactive'),
  ('C=C(C)[C@@H]1CC[C@]2(C(=O)NCCN)CC[C@]3(C)[C@H](CC[C@@H]4[C@@]5(C)CC[C@H](O)C(C)(C)[C@@H]5CC[C@]43C)[C@@H]12 [Compound 17]', 'inactive'),
  ('C=C(C)[C@@H]1CC[C@]2(C(=O)O)CC[C@]3(C)[C@H](CC[C@@H]4[C@@]5(C)CC[C@H](OC(=O)c6ccccc6)C(C)(C)[C@@H]5CC[C@]43C)[C@@H]12 [Compound 9]', 'inactive'),
  ('C=C(C)[C@@H]1CC[C@]2(C(=O)NCC(=O)O)CC[C@]3(C)[C@H](CC[C@@H]4[C@@]5(C)CC[C@H](O)C(C)(C)[C@@H]5CC[C@]43C)[C@@H]12 [Compound 12]', 'inactive');

----------
- target_desc: K-RAS4B G12V (Homo sapiens, UniProt P01116, G12V)
- method_notes: Nucleotide exchange assay (SOS1-mediated GDP/GTP exchange, GDP-Glo), K-RAS4B G12V
- run_parameters: eight data points, at least three determinations, (*) single determination
pIC50: −log10 of the molar value.
This listing pairs compounds with measured pIC50.
readout_type: pIC50

INSERT INTO results (compound, readout_type, recorded_result) VALUES
  ('C=C(C)[C@@H]1CC[C@]2(COC(=O)CCC(=O)O)CC[C@]3(C)[C@H](CC[C@@H]4[C@@]5(C)CC[C@H](OC(=O)CCC(=O)O)C(C)(C)[C@@H]5CC[C@]43C)[C@@H]12 [Compound 32]', 'pIC50', 5.86),
  ('C=C(C)[C@@H]1CC[C@]2(COC(=O)/C=C\C(=O)O)CC[C@]3(C)[C@H](CC[C@@H]4[C@@]5(C)CC[C@H](O)C(C)(C)[C@@H]5CC[C@]43C)[C@@H]12 [Compound 30]', 'pIC50', 5.50),
  ('CC(C=O)[C@@H]1CC[C@]2(C(=O)O)CC[C@]3(C)[C@H](CC[C@@H]4[C@@]5(C)CC[C@H](OC(=O)c6ccccc6C(=O)O)C(C)(C)[C@@H]5CC[C@]43C)[C@@H]12 (stereo partly shown) [Compound 14]', 'pIC50', 4.29),
  ('CC1(C)CC[C@]2(C(=O)NO)CC[C@]3(C)C(=CC[C@@H]4[C@@]5(C)CC[C@H](OC(=O)c6cc(F)c(F)cc6C(=O)O)C(C)(C)[C@@H]5CC[C@]43C)[C@@H]2C1 [Compound 41]', 'pIC50', 5.26),
  ('C[C@H]1[C@H](C)CC[C@]2(C(=O)O)CC[C@]3(C)C(=CC[C@@H]4[C@@]5(C)CC[C@H](OC(=O)c6cc(F)c(F)cc6C(=O)O)C(C)(C)[C@@H]5CC[C@]43C)[C@H]12 [Compound 37]', 'pIC50', 5.67),
  ('C=C(C)[C@@H]1CC[C@]2(C(=O)O)CC[C@]3(C)[C@H](CC[C@@H]4[C@@]5(C)CC[C@H](OC(=O)c6c(F)ccc(F)c6C(=O)O)C(C)(C)[C@@H]5CC[C@]43C)[C@@H]12 [Compound 24]', 'pIC50', 4.81),
  ('CC1(C)CC[C@]2(C(=O)O)CC[C@]3(C)C(=CC[C@@H]4[C@@]5(C)CC[C@H](OC(=O)c6c(F)ccc(F)c6C(=O)O)C(C)(C)[C@@H]5CC[C@]43C)[C@@H]2C1 [Compound 44]', 'pIC50', 5.60),
  ('CC1(C)CC[C@]2(C(=O)O)CC[C@]3(C)C(=CC[C@@H]4[C@@]5(C)CC[C@H](OC(=O)c6sccc6C(=O)O)C(C)(C)[C@@H]5CC[C@]43C)[C@@H]2C1 [Compound 45]', 'pIC50', 5.25),
  ('C=C(C)[C@@H]1CC[C@]2(COC(=O)CCC(=O)O)CC[C@]3(C)[C@H](CC[C@@H]4[C@@]5(C)CC[C@H](O)C(C)(C)[C@@H]5CC[C@]43C)[C@@H]12 [Compound 31]', 'pIC50', 4.90),
  ('C=C(C)[C@@H]1CC[C@]2(C(=O)O)CC[C@]3(C)[C@H](CC[C@@H]4[C@@]5(C)CC[C@H](OC(=O)CC(C)(C)C(=O)O)C(C)(C)[C@@H]5CC[C@]43C)[C@@H]12 [Compound 28, bevirimat, reference compound]', 'pIC50', 6.21);
